Exercise: for every item that follows, state its recorded IC50 of inhibition of human C4c deposition (C4c ELISA, normal human serum on mannan).
Biological target: T1, human MASP-1 (human, UniProt P48740 20-699)
T1 sequence: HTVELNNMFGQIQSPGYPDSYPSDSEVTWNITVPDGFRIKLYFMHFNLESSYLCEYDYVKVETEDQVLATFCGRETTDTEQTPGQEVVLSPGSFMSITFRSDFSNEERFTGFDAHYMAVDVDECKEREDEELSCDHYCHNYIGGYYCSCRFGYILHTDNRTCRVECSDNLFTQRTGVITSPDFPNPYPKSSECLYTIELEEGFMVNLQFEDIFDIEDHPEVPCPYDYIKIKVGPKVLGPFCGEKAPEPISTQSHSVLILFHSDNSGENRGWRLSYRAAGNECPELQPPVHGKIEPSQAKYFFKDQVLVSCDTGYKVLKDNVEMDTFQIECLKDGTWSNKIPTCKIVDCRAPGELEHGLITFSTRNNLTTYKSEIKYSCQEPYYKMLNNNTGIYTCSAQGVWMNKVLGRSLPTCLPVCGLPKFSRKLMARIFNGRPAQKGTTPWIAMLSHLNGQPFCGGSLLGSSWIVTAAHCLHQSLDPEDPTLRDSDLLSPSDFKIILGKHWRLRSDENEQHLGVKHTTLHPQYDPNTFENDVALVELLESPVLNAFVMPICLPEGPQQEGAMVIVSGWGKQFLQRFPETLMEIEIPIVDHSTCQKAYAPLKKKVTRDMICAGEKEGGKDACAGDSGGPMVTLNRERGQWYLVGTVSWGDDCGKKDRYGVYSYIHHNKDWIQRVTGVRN
Experiment: cell-based or functional assay
Write the numeric value and follow it with the unit.

Known IC50 of inhibition of human C4c deposition (C4c ELISA, normal human serum on mannan) results, listed for orientation:
| binder | value_reported |
| --- | --- |
| MAS0141aa (antibody, human IgG4 S228P, kappa, V domains shown, Rabbit/human chimeric antibody: rabbit variable regions recombined with F760G4 and kOMTC constant regions; also called anti-MASP-1 chimeric mAb MAS0141aa) VH: QSVEESGGRLVTPGTPLTLTCTASGFSLINYYMTWVRQAPGKGLEWIGIINTDGGTYYASWAKGRFTISRTSTTVDLKMTSLTTEDTATYFCARGVFTGGWTGMRTNLWGPGTLVTVSS VL: DVVMTQTPASVEAAVGGTVTIKCQASEDIYILLAWYQQKPGQPPKLLIYAASNLESGVPSRFKGSGSGTEFTLTISDLECADAATYYCQCTYGSSSSNAFGGGTKVEIKR | 0.45 µg/mL |
| MAS0102dd (antibody, human IgG4 S228P, kappa, V domains shown, Rabbit/human chimeric antibody: rabbit variable regions recombined with F760G4 and kOMTC constant regions; also called anti-MASP-1 chimeric mAb MAS0102dd) VH: QSVEESGGRLVTPGTPLTLTCTVSGFSLSSYAMSWVRQAPGKGLEWIGIITNLDNTYYANWAKGRFTISKTSTTVDLKITSPTTEDTAAYLCARERIKRKYSYDDYGGWAFDPWGPGTLVTVSS VL: QVLTQTPSSVSGPVGGTVTINCQAIENIYRSLAWYQQKPGQPPKLLIYDTSDLASGVPSRFSGSGSGTEYTLTISGVQCDDAATYYCQSYYYSSVTYNAFGGGTKVEIKR | 0.29 µg/mL |

The recorded IC50 of inhibition of human C4c deposition (C4c ELISA, normal human serum on mannan) for MAS0154dd (antibody, human IgG4 S228P, kappa, V domains shown, Rabbit/human chimeric antibody: rabbit variable regions recombined with F760G4 and kOMTC constant regions; also called anti-MASP-1 chimeric mAb MAS0154dd) VH: QSVEESGGRLVTPGTPLTLTCTVSGFSLSNYNMGWVRQAPGEGLEYIGIISSQGDIYYATWAKGRFTISKTSTTVDLKITSPTTEDTATYFCARARHVGSAADSYFHLWGLGTLVTVSS VL: AVVLTQTASPVSAAVGGTVTINCQASEEIYRNLAWYQQKPGQRPKLLIYGASNLASGVPSRFSGSGSGTEYTLTISDLECADAATYYCQRYAWGKNSADGNTFGGGTKVEIKR is 0.11 µg/mL
